Every entry's value here was drawn from patent US20250382317A1.

Assay: Solubility in HCl 0.01N (pH 1.0) and phosphate saline buffer (pH 7.4), LC-MSMS
Details: phosphate saline buffer, pH 7.4, aqueous buffer, thermodynamic from solid
Classes are defined on solubility at 24 h with ranges low group = under 70 µM, middle group = from 70 µM up to 200 µM, high group = 200 µM and over

See these solved cases before continuing.
[
  {
    "Compound": "COc1ccc(C#N)cc1/C=C(\\C#N)c1cn(C(=O)CCCCCCP(=O)([O-])O)c2ccc(Br)cc12.[Na+]",
    "Category label": "middle group"
  },
  {
    "Compound": "COc1ccc(C#N)cc1/C=C(\\C#N)c1cn(C(=O)CCCP(=O)([O-])[O-])c2ccc(Br)cc12.[Na+].[Na+]",
    "Category label": "low group"
  },
  {
    "Compound": "COc1ccc(C#N)cc1/C=C(\\C#N)c1cn(C(=O)CCP(=O)(O)O)c2ccc(Br)cc12",
    "Category label": "low group"
  },
  {
    "Compound": "COc1ccc2c(/C(C#N)=C/c3cc(C#N)ccc3OC)cn(C(=O)CCCCCCP(=O)([O-])O)c2c1.[Na+]",
    "Category label": "high group"
  },
  {
    "Compound": "COc1ccc(C#N)cc1/C=C(\\C#N)c1cn(C(=O)OCc2ccc(O[C@@H]3O[C@H](C(=O)O)[C@@H](O)[C@H](O)[C@H]3O)cc2)c2ccc(Br)cc12",
    "Category label": "high group"
  }
]

Task: For COc1ccc2c(/C(C#N)=C/c3cc(C#N)ccc3OC)cn(C(=O)CCCCP(=O)([O-])O)c2c1.[Na+] , which solubility at 24 h bin applies?
Output: high group

----------
The following compounds are shown together with reported solubility at 24 h values.
Assay: Solubility in HCl 0.01N (pH 1.0) and phosphate saline buffer (pH 7.4), LC-MSMS
Conditions: HCl 0.01N, pH 1, simulated gastric fluid, thermodynamic from solid
// note: answer is a bare numeric in µM

Check out these entries, answers already filled in.
[
  {
    "Structure smiles string": "COc1ccc2c(/C(C#N)=C/c3cc(C#N)ccc3OC)cn(C(=O)CCCCP(=O)([O-])O)c2c1.[Na+]",
    "Units label": "µM",
    "solubility at 24 h": 10
  },
  {
    "Structure smiles string": "COc1ccc(C#N)cc1/C=C(\\C#N)c1cn(C(=O)CCCP(=O)([O-])[O-])c2ccc(Br)cc12.[Na+].[Na+]",
    "Units label": "µM",
    "solubility at 24 h": 19
  },
  {
    "Structure smiles string": "COc1ccc2c(/C(C#N)=C/c3cc(C#N)ccc3OC)cn(C(=O)CCCCCCP(=O)([O-])O)c2c1.[Na+]",
    "Units label": "µM",
    "solubility at 24 h": 109
  },
  {
    "Structure smiles string": "COc1ccc(C#N)cc1/C=C(\\C#N)c1cn(C(=O)CCCCP(=O)([O-])O)c2ccc(Br)cc12.[Na+]",
    "Units label": "µM",
    "solubility at 24 h": 34
  }
]

The record that follows has no solubility at 24 h shown yet.
Task: Suppose we examine the compound COc1ccc(C#N)cc1/C=C(\C#N)c1cn(C(=O)CCCCCCP(=O)([O-])O)c2ccc(Br)cc12.[Na+] ; what solubility at 24 h value has been reported?
Output: 93
